# Test system: SW-620 colon
# assay-explanation: NCI tumour cell line growth inhibition, 48 h
experimental-readout: TGI

| compound | TGI |
| --- | --- |
| C=C(Br)CN(C#N)CC(=C)Br | > 100 µM |

Form field: reported TGI of Cn1cnc([N+](=O)[O-])c1Sc1ncnc2nc[nH]c12
> 100 µM

Entry O=C1/C(=C/c2cccs2)N=C(c2ccccc2)N1C1Nc2cc3c(cc2S1)NC(N1C(=O)/C(=C/c2cccs2)N=C1c1ccccc1)S3 (stereo not given) please
> 100 µM

Entry CN(C)CCOc1ccc(-c2c(Oc3ccc(Cl)cc3)c(=O)oc3ccccc23)cc1 please
> 62 µM

Entry O=C1Cc2c(-c3ccccc3)cc(-c3cccc(Cl)c3)nc2-c2ccccc2N1 please
> 100 µM
